Test system: TK-10 renal
protocol: NCI-60 one-dose screen, 48 h (100 = growth as untreated, 0 = no growth, -100 = all killed)
setup conditions: 10 µM unless noted
Compounds without any hit were thinned out: in the full panel of roughly 83,000, 20% have a hit. The source made the active and inactive calls. Rule for the calls: active = growth percent below 10; inactive = the rest.

compound	measurement target	growth
CCCCC(=O)OCC1OC(n2cnc3c(=S)nc[nH]c32)C(OC(=O)CCCC)C1OC(=O)CCCC (centres undefined)	TK-10 renal	14.9% (inactive)
Cc1nc2c3c(-c4ccccc4)c(-c4ccccc4)oc3ncn2n1	TK-10 renal	108% (inactive)
COc1ccc(NC2=C(Sc3nc(C)cc(C)n3)C(=O)N(Cc3ccccc3)C2=O)cc1Cl	TK-10 renal	111% [30 µM] (inactive)
CCN(CC)S(=O)(=O)c1ccc(OC)c(NC(=O)c2[nH]c(C)c3c2CCCCC3=O)c1	TK-10 renal	13.5% (inactive)
COc1ccc(CN2c3ccccc3Oc3ccccc32)cc1O	TK-10 renal	64.4% (inactive)
CCc1nc(N)nc(N)c1C#CC(C)c1cc(-c2ccnc(C)c2)c2oc(C)nc2c1 (centres undefined)	TK-10 renal	25.2% (inactive)
CCC#CC[C@H](O)C/C=C1/C(=O)C=C[C@@H]1C/C=C\CCCC(=O)OC	TK-10 renal	2.33% (active)
CN(C)S(=O)(=O)c1ccc(S(=O)(=O)Nc2cccc(Cl)c2N2CCCCC2)cc1	TK-10 renal	102% (inactive)
Cc1cc(N2CCN(c3ccnc4cc(Cl)ccc34)CC2)nc(NC2CCCCC2)n1	TK-10 renal	48.8% (inactive)
COc1ccc(/C=C/C(=O)c2cc(O)ccc2O)cc1	TK-10 renal	95.3% (inactive)
C#CCOc1ccc2ncnc(N3CCN(C(=O)CCl)CC3)c2c1	TK-10 renal	99.1% [8.25 µM] (inactive)
O=c1cc(CSc2nnc(SCc3cc(=O)oc4c3ccc3ccccc34)o2)c2ccc3ccccc3c2o1	TK-10 renal	98.8% (inactive)
COc1cc(-c2nn(-c3ccc(C(=O)O)cc3)cc2C(=O)O)ccc1O	TK-10 renal	122% (inactive)
NC(=NCCCC1(c2ccccc2)CCCC1)Nc1ccc(Cl)cc1	TK-10 renal	71.1% (inactive)
O=C1CSC(=S)N1CCc1ccc(O)cc1	TK-10 renal	68.7% (inactive)
COc1cc(/C=C/C(=O)c2ccc(O)c(CN3CCN(c4cc5c(cc4F)c(=O)c(C(=O)O)cn5C4CC4)CC3)c2)cc(OC)c1OC	TK-10 renal	107% (inactive)
CCOC(=O)c1c(C)oc2ncnc(N3CCN(C(=O)COc4ccc(SC)cc4)CC3)c12	TK-10 renal	103% (inactive)
CCNC(=O)Oc1ccc(/C(=C(\C)c2ccc(Cl)cc2)c2ccc(OCCN3CCCCC3)cc2)cc1	TK-10 renal	83.7% (inactive)
Cn1c(NCCc2ccc(O)c(O)c2)nc2c1c(=O)n(Cc1ccc(Cl)c(Cl)c1)c(=O)n2C	TK-10 renal	65.9% (inactive)
COc1cccc(-c2nn(C(C)(C)C)cc2-c2ccnc(NCCCNS(=O)(=O)c3ccc(C)cc3)c2)c1	TK-10 renal	98.8% (inactive)
O=C1c2cc3c(cc2-c2c1c1cc(F)c(F)cc1c(=O)n2CCCn1ccnc1)OCO3	TK-10 renal	29.8% (inactive)
COc1cc2c(cc1O)CC[C@@H]1[C@@H]2CC[C@]2(C)[C@@H](OCCCN(C)C)CC[C@@H]12	TK-10 renal	-6.67% (active)
Cc1cc(N2CCSCC2)nc(NC2CCCC(Nc3ccnc4cc(Cl)ccc34)C2)n1 (centres undefined)	TK-10 renal	-57.9% (active)
COc1cc2c(cc1OC)C(Sc1ccc(SC)cc1)c1c(nc(N)c(C#N)c1N)O2 (centres undefined)	TK-10 renal	-95.7% (active)
O=C1OCC2=C1C(c1ccncc1)c1cc3c(cc1N2CCO)OCO3 (centres undefined)	TK-10 renal	101% (inactive)
CC(C)(C)c1cc(/C=N\NC(=O)/C=C/C=C/c2ccc3c(c2)OCO3)c(O)c(C(C)(C)C)c1	TK-10 renal	96% (inactive)
OCC(O)c1nc2ccc3[nH]ncc3c2c2c1CCCC2 (centres undefined)	TK-10 renal	4.51% (active)
Cc1[nH]c(-c2ccc3cc[nH]c3c2)c2c1C(=O)CCCC2	TK-10 renal	32.7% (inactive)
Cc1nn(-c2ccc(F)cc2)c2ncnc(Nc3ccc(NC(=O)Nc4ccc(Cl)c(C(F)(F)F)c4)cc3)c12	TK-10 renal	26.5% (inactive)
CCN1CCN(c2nc(NCCNc3ccnc4cc(Cl)ccc34)c3ccccc3n2)CC1	TK-10 renal	-19.4% (active)
Nc1ccc(-c2cc3c(Nc4ccc(Oc5cccc(C(F)(F)F)c5)c(Cl)c4)ncnc3s2)cc1	TK-10 renal	90.3% (inactive)
Nc1nc2ccc3[nH]ncc3c2c2c1CCCC2	TK-10 renal	4.7% (active)
O=C1c2cccc3cccc(c23)C(=O)N1CCCCCN1CCN(CCCCCOc2ccc(-c3nc4ccc(N5CCOCC5)cc4[nH]3)cc2)CC1	TK-10 renal	106% (inactive)
COC(=O)c1ccc(Cn2cnc3c(N)ncnc32)cc1	TK-10 renal	86.3% (inactive)
CCOC(=O)c1c(C)oc2ncnc(N3CCN(C(=S)Nc4ccccc4)CC3)c12	TK-10 renal	100% (inactive)
CCOC(=O)c1sc2nc(-c3cccc(O)c3)nc(N3CCOCC3)c2c1C	TK-10 renal	79.1% (inactive)
O=C1/C(=C/c2ccccc2)SC(=S)N1CCc1ccc(O)cc1	TK-10 renal	99.9% (inactive)
CC(=O)c1cc2c(N)c(C(=O)Nc3ccccc3)sc2nc1C	TK-10 renal	76.4% (inactive)
c1ccc(-c2c(-c3ccccc3)[n+](Cc3ccc4ccccc4c3)c(-c3ccc(-c4nc5ccccc5s4)cc3)n2Cc2ccc3ccccc3c2)cc1	TK-10 renal	-80.9% (active)
